System: PC-3 PIP/flu tumor-bearing mice
measurement.notes: Biodistribution in PC-3 PIP/flu tumor-bearing mice
condition.label: 15 min p.i., i.v.
experimental.readout: Muscle (% IA/g)
Give bare numbers, in % IA/g.

In the examples that follow, each entry is paired with its recorded Muscle.
molecule	Muscle, % IA/g
O=C([O-])CN1CCN(CC(=O)[O-])CCN(CC(=O)NCC2CCC(C(=O)NC(Cc3ccc4ccccc4c3)C(=O)NCCCCC(NC(=O)NC(CCC(=O)O)C(=O)O)C(=O)O)CC2)CCN(CC(=O)[O-])CC1.[44Sc+3] (stereo not shown) [^44Sc-PSMA-617]	1.37
O=C([O-])CN(CCN(CC(=O)[O-])Cc1cc(CCC(=O)NCCCCCC(=O)NCCCC[C@H](NC(=O)N[C@@H](CCC(=O)O)C(=O)O)C(=O)O)ccc1[O-])Cc1cc(CCC(=O)O)ccc1[O-].[68Ga+3] [^68Ga-PSMA-11]	1.21
O=C([O-])CN1CCN(CC(=O)[O-])CCN(CC(=O)NCC2CCC(C(=O)N[C@@H](Cc3ccc4ccccc4c3)C(=O)NCCCC[C@H](NC(=O)N[C@@H](CCC(=O)O)C(=O)O)C(=O)O)CC2)CCN(CC(=O)[O-])CC1.[177Lu+3] (stereo partly shown) [^177Lu-PSMA-617]	1.78

Now for another entry.
Which value of Muscle has been reported for O=C([O-])CN1CCN(CC(=O)[O-])CCN(CC(=O)NCC2CCC(C(=O)NC(Cc3ccc4ccccc4c3)C(=O)NCCCCC(NC(=O)NC(CCC(=O)O)C(=O)O)C(=O)O)CC2)CCN(CC(=O)[O-])CC1.[68Ga+3] (stereo not shown) [^68Ga-PSMA-617] in the records?
1.53

====

Test system: PC-3 PIP/flu tumor-bearing mice
measurement.notes: Biodistribution in PC-3 PIP/flu tumor-bearing mice
condition.label: 15 min p.i., i.v.
experimental.readout: Spleen (% IA/g)
Give bare numbers, in % IA/g.

Provide Spleen values for the following items, in order.
1. O=C([O-])CN(CCN(CC(=O)[O-])Cc1cc(CCC(=O)NCCCCCC(=O)NCCCC[C@H](NC(=O)N[C@@H](CCC(=O)O)C(=O)O)C(=O)O)ccc1[O-])Cc1cc(CCC(=O)O)ccc1[O-].[68Ga+3] [^68Ga-PSMA-11]
2. O=C([O-])CN1CCN(CC(=O)[O-])CCN(CC(=O)NCC2CCC(C(=O)NC(Cc3ccc4ccccc4c3)C(=O)NCCCCC(NC(=O)NC(CCC(=O)O)C(=O)O)C(=O)O)CC2)CCN(CC(=O)[O-])CC1.[44Sc+3] (stereo not shown) [^44Sc-PSMA-617]
3. O=C([O-])CN1CCN(CC(=O)[O-])CCN(CC(=O)NCC2CCC(C(=O)N[C@@H](Cc3ccc4ccccc4c3)C(=O)NCCCC[C@H](NC(=O)N[C@@H](CCC(=O)O)C(=O)O)C(=O)O)CC2)CCN(CC(=O)[O-])CC1.[177Lu+3] (stereo partly shown) [^177Lu-PSMA-617]
4. O=C([O-])CN1CCN(CC(=O)[O-])CCN(CC(=O)NCC2CCC(C(=O)NC(Cc3ccc4ccccc4c3)C(=O)NCCCCC(NC(=O)NC(CCC(=O)O)C(=O)O)C(=O)O)CC2)CCN(CC(=O)[O-])CC1.[68Ga+3] (stereo not shown) [^68Ga-PSMA-617]

[5.33, 3.06, 2.85, 3.92]

====

Test system: PC-3 PIP/flu tumor-bearing mice
measurement.notes: Biodistribution in PC-3 PIP/flu tumor-bearing mice
condition.label: 30 min p.i., i.v.
Give measured Bone for each item. Keep answers brief.
Answers are plain numbers, in % IA/g.

In the examples that follow, each entry is paired with its recorded Bone.
molecule	measurement
O=C([O-])CN1CCN(CC(=O)[O-])CCN(CC(=O)NCC2CCC(C(=O)NC(Cc3ccc4ccccc4c3)C(=O)NCCCCC(NC(=O)NC(CCC(=O)O)C(=O)O)C(=O)O)CC2)CCN(CC(=O)[O-])CC1.[68Ga+3] (stereo not shown) [^68Ga-PSMA-617]	1.00
O=C([O-])CN(CCN(CC(=O)[O-])Cc1cc(CCC(=O)NCCCCCC(=O)NCCCC[C@H](NC(=O)N[C@@H](CCC(=O)O)C(=O)O)C(=O)O)ccc1[O-])Cc1cc(CCC(=O)O)ccc1[O-].[68Ga+3] [^68Ga-PSMA-11]	0.81
O=C([O-])CN1CCN(CC(=O)[O-])CCN(CC(=O)NCC2CCC(C(=O)N[C@@H](Cc3ccc4ccccc4c3)C(=O)NCCCC[C@H](NC(=O)N[C@@H](CCC(=O)O)C(=O)O)C(=O)O)CC2)CCN(CC(=O)[O-])CC1.[177Lu+3] (stereo partly shown) [^177Lu-PSMA-617]	1.07

Now for another entry.
Which value of Bone has been reported for O=C([O-])CN1CCN(CC(=O)[O-])CCN(CC(=O)NCC2CCC(C(=O)NC(Cc3ccc4ccccc4c3)C(=O)NCCCCC(NC(=O)NC(CCC(=O)O)C(=O)O)C(=O)O)CC2)CCN(CC(=O)[O-])CC1.[44Sc+3] (stereo not shown) [^44Sc-PSMA-617] in the records?
0.92

Data provenance is paper PMC5247395.
